Target: T1, activated Protein C (APC) (human, UniProt P04070 43-197; P04070 212-461)
T1 construct: also called human plasma APC
T1 sequence (P04070 43-197, chain 1 of 2): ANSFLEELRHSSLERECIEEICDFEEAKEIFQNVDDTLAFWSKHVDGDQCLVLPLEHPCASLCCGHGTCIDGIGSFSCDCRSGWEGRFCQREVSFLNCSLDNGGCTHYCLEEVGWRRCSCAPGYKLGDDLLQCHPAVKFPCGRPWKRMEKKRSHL
T1 sequence (P04070 212-461, chain 2 of 2): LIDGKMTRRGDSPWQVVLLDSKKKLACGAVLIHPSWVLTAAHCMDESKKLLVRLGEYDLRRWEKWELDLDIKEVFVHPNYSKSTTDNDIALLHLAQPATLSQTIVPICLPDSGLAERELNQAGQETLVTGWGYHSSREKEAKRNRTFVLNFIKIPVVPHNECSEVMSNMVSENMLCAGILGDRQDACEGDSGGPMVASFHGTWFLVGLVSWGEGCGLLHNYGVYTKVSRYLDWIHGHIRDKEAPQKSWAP
Test: ratio of rate constants, APC over thrombin
Experimental Endpoint: inhibition of APC/thrombin (fold)
Answer format: numeric, fold implied, no suffix.

[Q] Let me know recorded inhibition of APC/thrombin for FL α1AT Pitts C232S P2TP1′Y (other, E. coli, purified; also called 3.A10) SDPQGDAAQKTDTSHHDQDHPTFNKITPNLAEFAFSLYRQLAHQSNSTNIFFSPVSIATAFAMLSLGTKADTHDEILEGLNFNLTEIPEAQIHEGFQELLRTLNQPDSQLQLTTGNGLFLSEGLKLVDKFLEDVKKLYHSEAFTVNFGDTEEAKKQINDYVEKGTQGKIVDLVKELDRDTVFALVNYIFFKGKWERPFEVKDTEEEDFHVDQVTTVKVPMMKRLGMFNIQHSKKLSSWVLLMKYLGNATAIFFLPDEGKLQHLENELTHDIITKFLENEDRRSASLHLPKLSITGTYDLKSVLGQLGITKVFSNGADLSGVTEEAPLKLSKAVHKAVLTIDEKGTEAAGAMFLEAITRYIPPEVKFNKPFVFLMIEQNTKSPLFMGKVVNPTQK , thanks.
[A] 248

[Q] Let me know recorded inhibition of APC/thrombin for FL α1AT Pitts C232S P1′R (other, E. coli, purified; also called P1′.A11) SDPQGDAAQKTDTSHHDQDHPTFNKITPNLAEFAFSLYRQLAHQSNSTNIFFSPVSIATAFAMLSLGTKADTHDEILEGLNFNLTEIPEAQIHEGFQELLRTLNQPDSQLQLTTGNGLFLSEGLKLVDKFLEDVKKLYHSEAFTVNFGDTEEAKKQINDYVEKGTQGKIVDLVKELDRDTVFALVNYIFFKGKWERPFEVKDTEEEDFHVDQVTTVKVPMMKRLGMFNIQHSKKLSSWVLLMKYLGNATAIFFLPDEGKLQHLENELTHDIITKFLENEDRRSASLHLPKLSITGTYDLKSVLGQLGITKVFSNGADLSGVTEEAPLKLSKAVHKAVLTIDEKGTEAAGAMFLEAIPRRIPPEVKFNKPFVFLMIEQNTKSPLFMGKVVNPTQK , thanks.
[A] 194
